# assay overview: RP, Waters ACQUITY UPLC HSS T3, 100 × 2.1 mm, 1.8 µm; A: water + 0.1% formic acid, pH 3; B: 30% methanol + 70% acetonitrile + 0.1% formic acid, pH 3; gradient (min/%B) 0.0/5 1.0/8 2.0/15 3.0/40 4.0/70 4.5/100 5.0/100 6.4/100 6.6/5.0 6.8/5.0 7.0/5.0
# run parameters: stereoisomer not certain
Where a name gives a salt, the structure may show the parent alone.
measured quantity: LC retention time (min)

The cases that follow already have their LC retention time on record.
[[record]]
molecule = "NCCCC(N)C(=O)O (stereo not drawn) [l-ornithine monohydrochloride]"
unit_of_measurement = "min"
quantitative_readout = 0.415

[[record]]
molecule = "O=C(O)C(O)Cc1c[nH]c2ccccc12 (racemic) [dl-3-indolelactic acid]"
unit_of_measurement = "min"
quantitative_readout = 3.52

[[record]]
molecule = "C[N+](C)(C)CC(O)CC(=O)[O-] (stereo not drawn) [l-carnitine inner salt]"
unit_of_measurement = "min"
quantitative_readout = 0.457

[[record]]
molecule = "NC(CCC(=O)O)C(=O)O (stereo not given) [glutamic acid]"
unit_of_measurement = "min"
quantitative_readout = 0.475

[[record]]
molecule = "O=C(O)C1CC(O)CN1 (stereo not drawn) [trans-4-hydroxy-l-proline]"
unit_of_measurement = "min"
quantitative_readout = 0.479


(I) O=C1CCCCN1 [delta-valerolactam]
(II) NC(CSSCC(N)C(=O)O)C(=O)O (stereo not drawn) [l-cystine]
Lab note: record which item had the higher LC retention time, I or II . Please respond with the label that marks your chosen entry.
I

(P) Cn1c(=O)[nH]c(=O)c2c1[nH]c(=O)n2C [3,7-dimethyluric acid]
(Q) CCC(C)(O)C(=O)O (stereo not given) [2-hydroxy-2-methylbutyric acid]
Lab note: record which item had the higher LC retention time, P or Q . Please respond with the label that marks your chosen entry.
Q
